B1: minF1; the commonest letter at each place (parent)
chain: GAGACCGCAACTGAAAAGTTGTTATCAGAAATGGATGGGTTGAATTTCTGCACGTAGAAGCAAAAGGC

Variants of: B1
Test: fraction ligated after 30 min (ligated reads / total reads); higher = more ligase activity
Settings: with F1*subA RNA substrate (template-directed ligation), 42 °C
Bucketed by reported fraction ligated, buckets being low bin: < 0.009; mid bin: ≥ 0.009 and < 0.05; high bin: ≥ 0.05

Worked examples follow.
| mutation code | label value |
| --- | --- |
| G34T G42C | low bin |
| T23A A43G | low bin |
| G28T G33C | high bin |

Prompt: Lab note: which band did T25A G33A land in?
Response: mid bin

Prompt: Lab note: which band did G28T G42A land in?
Response: high bin

Prompt: Lab note: which band did T23A G33A land in?
Response: high bin
